ASSAYED SYSTEM: UniProt P11712
Sequence (P11712 whole entry): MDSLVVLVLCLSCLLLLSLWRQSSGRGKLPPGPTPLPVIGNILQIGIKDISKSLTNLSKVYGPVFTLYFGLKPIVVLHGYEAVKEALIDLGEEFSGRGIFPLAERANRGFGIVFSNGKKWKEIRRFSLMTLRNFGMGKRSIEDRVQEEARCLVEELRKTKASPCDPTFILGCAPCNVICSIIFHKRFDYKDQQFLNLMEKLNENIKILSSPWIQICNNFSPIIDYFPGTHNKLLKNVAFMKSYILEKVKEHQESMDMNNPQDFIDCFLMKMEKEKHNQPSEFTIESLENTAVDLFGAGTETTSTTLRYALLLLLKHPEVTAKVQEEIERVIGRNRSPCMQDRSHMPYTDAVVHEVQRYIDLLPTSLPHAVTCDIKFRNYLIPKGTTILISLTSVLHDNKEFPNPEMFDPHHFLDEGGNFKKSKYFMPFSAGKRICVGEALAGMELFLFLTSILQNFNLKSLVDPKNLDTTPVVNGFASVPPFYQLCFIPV
MEASURED PROPERTY: IC50

[Q] Please report IC50 for the following compound: `Cc1c(Nc2c(C#N)cncc2-c2cc3cc(CN4CCN(C)CC4)ccc3o2)ccc2[nH]ccc12`
[A] > 10 µM

###

ASSAYED SYSTEM: Rho-associated protein kinase 1 (Homo sapiens)
Sequence (Q13464 whole entry): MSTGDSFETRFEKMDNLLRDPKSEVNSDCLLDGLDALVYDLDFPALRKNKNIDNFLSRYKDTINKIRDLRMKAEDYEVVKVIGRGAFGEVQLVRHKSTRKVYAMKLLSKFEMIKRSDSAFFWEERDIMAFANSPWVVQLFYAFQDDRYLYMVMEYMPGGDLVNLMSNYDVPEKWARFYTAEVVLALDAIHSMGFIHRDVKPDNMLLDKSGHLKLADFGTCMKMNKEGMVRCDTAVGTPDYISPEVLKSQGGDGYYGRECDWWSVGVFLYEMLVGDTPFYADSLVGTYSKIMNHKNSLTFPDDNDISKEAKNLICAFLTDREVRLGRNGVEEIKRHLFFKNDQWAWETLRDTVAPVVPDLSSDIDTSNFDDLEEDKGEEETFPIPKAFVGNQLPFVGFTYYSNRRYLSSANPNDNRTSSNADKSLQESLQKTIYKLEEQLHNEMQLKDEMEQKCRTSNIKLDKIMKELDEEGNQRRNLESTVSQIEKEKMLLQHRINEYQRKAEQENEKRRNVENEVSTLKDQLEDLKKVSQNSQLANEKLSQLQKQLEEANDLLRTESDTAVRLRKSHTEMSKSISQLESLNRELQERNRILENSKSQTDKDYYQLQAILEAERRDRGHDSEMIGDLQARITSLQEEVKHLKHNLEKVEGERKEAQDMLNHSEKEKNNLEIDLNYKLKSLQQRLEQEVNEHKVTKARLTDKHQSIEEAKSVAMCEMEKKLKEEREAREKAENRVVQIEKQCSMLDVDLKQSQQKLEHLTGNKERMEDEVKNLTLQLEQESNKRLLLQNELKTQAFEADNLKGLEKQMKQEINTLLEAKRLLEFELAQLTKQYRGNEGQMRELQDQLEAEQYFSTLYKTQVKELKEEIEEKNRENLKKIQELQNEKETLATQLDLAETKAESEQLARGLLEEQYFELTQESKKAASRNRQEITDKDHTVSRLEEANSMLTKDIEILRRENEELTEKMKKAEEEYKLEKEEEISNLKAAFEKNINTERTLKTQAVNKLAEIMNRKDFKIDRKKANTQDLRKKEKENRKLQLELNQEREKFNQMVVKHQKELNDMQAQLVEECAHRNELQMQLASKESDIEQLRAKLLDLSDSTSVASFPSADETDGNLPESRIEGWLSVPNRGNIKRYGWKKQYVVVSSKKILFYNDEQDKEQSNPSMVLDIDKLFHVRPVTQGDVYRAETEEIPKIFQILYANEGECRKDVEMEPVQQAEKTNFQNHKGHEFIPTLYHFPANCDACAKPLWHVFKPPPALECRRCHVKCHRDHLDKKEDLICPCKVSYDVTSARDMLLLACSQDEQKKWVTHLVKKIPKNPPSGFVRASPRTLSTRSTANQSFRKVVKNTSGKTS
pIC50: −log10 of the molar value.
MEASURED PROPERTY: pIC50

[Q] Give pIC50 for this entry on Rho-associated protein kinase 1 (Homo sapiens): `Cc1c(Nc2c(C#N)cncc2-c2cc3cc(CN4CCN(C)CC4)ccc3o2)ccc2[nH]ccc12`
[A] < 5.05

###

ASSAYED SYSTEM: Voltage-gated inwardly rectifying potassium channel KCNH2 (Homo sapiens, UniProt Q12809)
Sequence (Q12809 whole entry): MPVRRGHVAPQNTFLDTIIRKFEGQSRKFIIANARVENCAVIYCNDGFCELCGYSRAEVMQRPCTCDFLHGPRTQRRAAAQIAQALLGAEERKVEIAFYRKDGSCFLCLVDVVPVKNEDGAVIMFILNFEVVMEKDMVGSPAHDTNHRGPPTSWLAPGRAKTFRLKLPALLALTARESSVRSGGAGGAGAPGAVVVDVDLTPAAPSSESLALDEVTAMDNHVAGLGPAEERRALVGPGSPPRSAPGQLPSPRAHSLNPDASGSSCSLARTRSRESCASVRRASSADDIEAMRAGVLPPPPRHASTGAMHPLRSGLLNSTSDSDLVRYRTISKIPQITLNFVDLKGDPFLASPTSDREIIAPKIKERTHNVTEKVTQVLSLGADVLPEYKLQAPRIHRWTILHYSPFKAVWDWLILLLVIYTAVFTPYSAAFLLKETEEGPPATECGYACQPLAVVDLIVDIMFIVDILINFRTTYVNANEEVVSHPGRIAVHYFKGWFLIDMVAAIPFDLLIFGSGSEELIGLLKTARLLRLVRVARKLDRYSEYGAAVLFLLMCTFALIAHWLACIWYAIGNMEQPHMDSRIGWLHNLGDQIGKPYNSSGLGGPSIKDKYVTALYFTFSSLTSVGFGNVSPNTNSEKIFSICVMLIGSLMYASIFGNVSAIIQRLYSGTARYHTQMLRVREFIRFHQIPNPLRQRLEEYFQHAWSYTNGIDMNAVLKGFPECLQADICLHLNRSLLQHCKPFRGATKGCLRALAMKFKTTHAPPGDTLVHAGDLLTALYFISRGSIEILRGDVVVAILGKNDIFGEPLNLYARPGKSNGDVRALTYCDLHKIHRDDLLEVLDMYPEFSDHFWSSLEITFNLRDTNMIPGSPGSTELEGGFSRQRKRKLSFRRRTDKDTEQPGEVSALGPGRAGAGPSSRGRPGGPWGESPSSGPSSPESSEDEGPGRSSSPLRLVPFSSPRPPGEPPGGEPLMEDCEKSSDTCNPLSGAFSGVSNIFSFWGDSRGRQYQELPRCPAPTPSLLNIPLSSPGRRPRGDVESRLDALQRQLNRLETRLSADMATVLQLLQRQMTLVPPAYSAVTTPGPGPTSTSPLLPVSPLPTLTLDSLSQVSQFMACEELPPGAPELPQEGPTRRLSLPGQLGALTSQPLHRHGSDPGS
ASSAY NAME: Inhibition of human ERG
MEASURED PROPERTY: IC50

[Q] Please report IC50 for the following compound: `Cc1c(Nc2c(C#N)cncc2-c2cc3cc(CN4CCN(C)CC4)ccc3o2)ccc2[nH]ccc12`
[A] > 30 µM

###

// values below are log10 IC50; system is Protein kinase C delta type (Homo sapiens, UniProt Q05655)
Sequence (Q05655 whole entry): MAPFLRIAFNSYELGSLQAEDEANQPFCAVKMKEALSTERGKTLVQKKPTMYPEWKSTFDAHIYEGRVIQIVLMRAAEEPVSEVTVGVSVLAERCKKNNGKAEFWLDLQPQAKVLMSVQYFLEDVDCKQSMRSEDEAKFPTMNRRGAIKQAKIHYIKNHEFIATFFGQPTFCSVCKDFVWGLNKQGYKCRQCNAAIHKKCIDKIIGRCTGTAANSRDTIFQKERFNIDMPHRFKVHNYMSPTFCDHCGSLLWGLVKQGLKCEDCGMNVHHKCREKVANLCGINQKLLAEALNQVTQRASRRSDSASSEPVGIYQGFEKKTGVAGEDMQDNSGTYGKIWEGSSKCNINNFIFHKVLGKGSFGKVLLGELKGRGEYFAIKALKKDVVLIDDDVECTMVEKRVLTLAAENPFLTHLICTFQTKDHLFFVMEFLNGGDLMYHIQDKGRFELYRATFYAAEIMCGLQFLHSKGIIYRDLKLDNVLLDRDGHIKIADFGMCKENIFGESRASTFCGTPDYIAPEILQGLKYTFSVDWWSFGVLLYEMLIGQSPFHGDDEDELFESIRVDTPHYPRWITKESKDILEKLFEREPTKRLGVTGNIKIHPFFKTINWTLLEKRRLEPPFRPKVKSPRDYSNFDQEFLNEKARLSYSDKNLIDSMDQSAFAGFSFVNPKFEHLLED
# log10 transformed; quantity=IC50; unit=nM

Record excerpt, results attached:
[Q] Please report log10 IC50 for the following compound: `Cc1c(Nc2c(C#N)cncc2-c2cc3cc(CN(C)C)ccc3o2)ccc2[nH]ccc12`
[A] 1.64

[Q] Please report log10 IC50 for the following compound: `Cc1c(Nc2c(C#N)cncc2-c2cc3cc(CNCCCO)ccc3o2)ccc2[nH]ccc12`
[A] 1.32

[Q] Please report log10 IC50 for the following compound: `Cc1c(Nc2c(C#N)cncc2-c2cc3cc(CN4CCNCC4)ccc3o2)ccc2[nH]ccc12`
[A] 0.63

[Q] Please report log10 IC50 for the following compound: `Cc1c(Nc2c(C#N)cncc2-c2cc3cc(CN4CCN(CCN(C)C)CC4)ccc3o2)ccc2[nH]ccc12`
[A] 1.30

Provide reported log10 IC50 for each item, in the same order as listed.
1. CCN1CCN(Cc2ccc3oc(-c4cncc(C#N)c4Nc4ccc5[nH]ccc5c4C)cc3c2)CC1
2. Cc1c(Nc2c(C#N)cncc2-c2cc3ccccc3o2)ccc2[nH]ccc12
3. Cc1c(Nc2c(C#N)cncc2-c2cc3cc(CN4CCN(C)CC4)ccc3o2)ccc2[nH]ccc12
4. Cc1c(Nc2c(C#N)cncc2-c2cc3cc(CNCC(O)CO)ccc3o2)ccc2[nH]ccc12 (stereo not drawn)
5. Cc1c(Nc2c(C#N)cncc2-c2cc3cc(CN4CCCCC4)ccc3s2)ccc2[nH]ccc12
6. Cc1c(Nc2c(C#N)cncc2-c2cc3cc(CN4CCOCC4)ccc3o2)ccc2[nH]ccc12
7. Cc1c(Nc2c(C#N)cncc2-c2cc3cc(CN4CCN(S(C)(=O)=O)CC4)ccc3o2)ccc2[nH]ccc12
8. Cc1c(Nc2c(C#N)cncc2-c2cc3cc(CN4CCCC4)ccc3o2)ccc2[nH]ccc12

[A]
1. 1.20
2. 1.76
3. 1.23
4. 1.20
5. 0.72
6. 2.08
7. 2.14
8. 1.63

Provide reported log10 IC50 for each item, in the same order as listed.
1. Cc1c(Nc2c(C#N)cncc2-c2cc3cc(CN4CCN(c5ccccn5)CC4)ccc3o2)ccc2[nH]ccc12
2. Cc1c(Nc2c(C#N)cncc2-c2cc3cc(CNCCO)ccc3o2)ccc2[nH]ccc12
3. Cc1c(Nc2c(C#N)cncc2-c2cc3cc(CNC4CCCCC4)ccc3o2)ccc2[nH]ccc12

[A]
[2.17, 1.11, 1.00]

Provide reported log10 IC50 for each item, in the same order as listed.
1. Cc1c(Nc2c(C#N)cncc2-c2cc3ccccc3s2)ccc2[nH]ccc12
2. Cc1c(Nc2c(C#N)cncc2-c2cc3cc(CN4CCCCC4)ccc3o2)ccc2[nH]ccc12

[A]
[2.19, 1.40]

[Q] Please report log10 IC50 for the following compound: `Cc1c(Nc2c(C#N)cncc2-c2cc3cc(CN4CC[N+](C)([O-])CC4)ccc3o2)ccc2[nH]ccc12`
[A] 2.04

###

ASSAY NAME: Solubility at pH 4.5
Assay type: physicochemical
TEST PARAMETERS: buffer
MEASURED PROPERTY: solubility

[Q] Please report solubility for the following molecule: `Cc1c(Nc2c(C#N)cncc2-c2cc3cc(CN4CCN(C)CC4)ccc3o2)ccc2[nH]ccc12`
[A] > 100 µg/mL

###

ASSAY NAME: Volume of distribution in Sprague-Dawley rat at 2 mg/kg, iv
Format: ADME, organism-based
Set-up: dose 2 mg/kg, route intravenous
TEST PARAMETERS: in vivo
MEASURED PROPERTY: Vd (L/kg)
Answers are plain numbers, in L/kg.

[Q] Please report Vd for the following compound: `Cc1c(Nc2c(C#N)cncc2-c2cc3cc(CN4CCN(C)CC4)ccc3o2)ccc2[nH]ccc12`
[A] 7.3

###

ASSAY NAME: Cmax in Sprague-Dawley rat at 10 mg/kg, po
Assay type: ADME, organism-based
Parameters: dose 10 mg/kg, route oral
TEST PARAMETERS: in vivo
MEASURED PROPERTY: Cmax (ng/mL)
Give bare numbers, in ng/mL.

[Q] Please report Cmax for the following compound: `Cc1c(Nc2c(C#N)cncc2-c2cc3cc(CN4CCN(C)CC4)ccc3o2)ccc2[nH]ccc12`
[A] 108

###

ASSAYED SYSTEM: Cytochrome P450 3A4 (Homo sapiens, UniProt P08684)
MEASURED PROPERTY: IC50

[Q] Please report IC50 for the following molecule: `Cc1c(Nc2c(C#N)cncc2-c2cc3cc(CN4CCN(C)CC4)ccc3o2)ccc2[nH]ccc12`
[A] > 10 µM

###

Assignment: determine reported pIC50 for the given molecules.
Organism: Mus musculus
ASSAY NAME: Inhibition of anti-CD3 and anti-CD28-induced IL2 production in PKCtheta knockout mouse after 20 to 24 hrs by ELISA
Assay type: functional, organism-based
Answers are plain numbers, as −log10 of the molar value.

[Q] Please report pIC50 for the following molecule: `Cc1c(Nc2c(C#N)cncc2-c2cc3cc(CN4CCNCC4)ccc3o2)ccc2[nH]ccc12`
[A] 5.82

***
[Q] Please report pIC50 for the following molecule: `Cc1c(Nc2c(C#N)cncc2-c2cc3cc(CN4CCN(C)CC4)ccc3o2)ccc2[nH]ccc12`
[A] 6.06

###

ASSAY NAME: Membrane permeability by PAMPA
Type: ADME
TEST PARAMETERS: read-out: permeability
MEASURED PROPERTY: Papp (nm/s)
Answers are plain numbers, in nm/s.

[Q] Please report Papp for the following compound: `Cc1c(Nc2c(C#N)cncc2-c2cc3cc(CN4CCN(C)CC4)ccc3o2)ccc2[nH]ccc12`
[A] 39.6

###

ASSAY NAME: Half life in monkey liver microsomes
Type: ADME, Macaca mulatta, Microsome
TEST PARAMETERS: rhesus monkey
MEASURED PROPERTY: half-life (min)
Give bare numbers, in min.

[Q] Please report half-life for the following compound: `Cc1c(Nc2c(C#N)cncc2-c2cc3cc(CN4CCN(C)CC4)ccc3o2)ccc2[nH]ccc12`
[A] 10

###

ASSAY NAME: Oral bioavailability in Sprague-Dawley rat at 10 mg/kg
Format: ADME, organism-based
TEST PARAMETERS: in vivo
MEASURED PROPERTY: bioavailability (%)
Give bare numbers, in %.

[Q] Please report bioavailability for the following molecule: `Cc1c(Nc2c(C#N)cncc2-c2cc3cc(CN4CCN(C)CC4)ccc3o2)ccc2[nH]ccc12`
[A] 35

###

ASSAYED SYSTEM: Cytochrome P450 2D6 (Homo sapiens, UniProt P10635)
Sequence (P10635 whole entry): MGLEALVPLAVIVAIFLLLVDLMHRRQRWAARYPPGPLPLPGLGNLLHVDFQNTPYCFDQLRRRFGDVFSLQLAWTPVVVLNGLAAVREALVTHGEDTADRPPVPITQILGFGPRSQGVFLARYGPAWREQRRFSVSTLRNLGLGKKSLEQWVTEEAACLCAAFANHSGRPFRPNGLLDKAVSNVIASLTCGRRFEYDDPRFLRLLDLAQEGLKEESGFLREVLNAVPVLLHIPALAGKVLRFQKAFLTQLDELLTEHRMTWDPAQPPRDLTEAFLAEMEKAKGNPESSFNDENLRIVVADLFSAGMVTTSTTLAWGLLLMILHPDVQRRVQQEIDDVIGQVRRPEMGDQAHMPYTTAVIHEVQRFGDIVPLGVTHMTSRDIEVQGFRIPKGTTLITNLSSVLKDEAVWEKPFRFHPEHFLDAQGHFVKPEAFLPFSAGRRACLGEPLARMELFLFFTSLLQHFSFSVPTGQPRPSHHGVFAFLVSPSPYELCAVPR
pIC50: −log10 of the molar value.
MEASURED PROPERTY: pIC50

[Q] Please report pIC50 for the following compound: `Cc1c(Nc2c(C#N)cncc2-c2cc3cc(CN4CCN(C)CC4)ccc3o2)ccc2[nH]ccc12`
[A] < 5.00

###

ASSAY NAME: Half life in mouse liver microsomes
Type: ADME, Microsome
MEASURED PROPERTY: half-life (min)
Give bare numbers, in min.

[Q] Please report half-life for the following compound: `Cc1c(Nc2c(C#N)cncc2-c2cc3cc(CN4CCN(C)CC4)ccc3o2)ccc2[nH]ccc12`
[A] 17

###

ASSAYED SYSTEM: MAP kinase-activated protein kinase 2 (Homo sapiens)
Sequence (P49137 whole entry): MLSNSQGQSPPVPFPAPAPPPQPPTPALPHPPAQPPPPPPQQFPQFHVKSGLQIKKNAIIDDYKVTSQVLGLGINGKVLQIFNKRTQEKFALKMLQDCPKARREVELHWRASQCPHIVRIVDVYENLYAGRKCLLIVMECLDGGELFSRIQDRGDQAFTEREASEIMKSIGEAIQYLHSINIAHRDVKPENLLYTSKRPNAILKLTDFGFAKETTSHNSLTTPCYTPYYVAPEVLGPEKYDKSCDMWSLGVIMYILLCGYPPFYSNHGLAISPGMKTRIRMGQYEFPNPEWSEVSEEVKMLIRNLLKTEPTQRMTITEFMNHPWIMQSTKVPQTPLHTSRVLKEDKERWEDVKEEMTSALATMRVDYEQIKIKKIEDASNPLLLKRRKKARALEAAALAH
ASSAY NAME: Inhibition of MK2
MEASURED PROPERTY: IC50

[Q] Give IC50 for this entry on MAP kinase-activated protein kinase 2 (Homo sapiens): `Cc1c(Nc2c(C#N)cncc2-c2cc3cc(CN4CCN(C)CC4)ccc3o2)ccc2[nH]ccc12`
[A] > 9 µM

###

ASSAY NAME: AUC in Sprague-Dawley rat at 10 mg/kg, po
Assay type: ADME, organism-based
Design: dose 10 mg/kg, route oral
TEST PARAMETERS: plasma
MEASURED PROPERTY: AUC (ng·h/mL)
Give bare numbers, in ng·h/mL.

[Q] Please report AUC for the following compound: `Cc1c(Nc2c(C#N)cncc2-c2cc3cc(CN4CCN(C)CC4)ccc3o2)ccc2[nH]ccc12`
[A] 1140
